Catalogue of activity at 2 µM values
- System: T cell leukemia cell line (Jurkat cell)
- assay details: Cytotoxic activity, MTS assay in T cell line
- Type: cell-based
- conditions used: Homo sapiens, Jurkat cells, compound 2 μM, 72 h, relative to solvent control (DMSO)
State the answer as a number, implicitly in %.

Cc1cc(CNCCOCCNC(=O)NCCO)c(OCc2cncc(C#N)c2)cc1OCc1cccc(-c2ccc3c(c2)OCCO3)c1C#N = 94.5

Ask: Consider the compound shown here: "Cc1c(COc2ccc(CNCCNC(=O)N[C@@H](COC(C)(C)C)C(=O)OC(C)(C)C)c(OCc3cccc(C#N)c3)c2)cccc1-c1ccccc1" What is its recorded activity at 2 µM?
Result: 99.7

Ask: Try "Cc1c(COc2ccc(CNCCNC(=O)NCCN3CCOCC3)c(OCc3cccc(C#N)c3)c2)cccc1-c1ccccc1" next.
Result: 102

Ask: Try "Cc1c(COc2ccc(CNCCNC(=O)NCCO)c(OCc3cccc(C#N)c3)c2)cccc1-c1ccccc1" next.
Result: 100

Ask: Try "Cc1cc(CNCCNC(=O)NCCO)c(OCc2cncc(C#N)c2)cc1OCc1cccc(-c2ccc3c(c2)OCCO3)c1C#N" next.
Result: 93.2

Ask: Try "Cc1cc(CNCCNC(=O)NCCS(C)(=O)=O)c(OCc2cncc(C#N)c2)cc1OCc1cccc(-c2ccc3c(c2)OCCO3)c1C#N" next.
Result: 91.6

====

- Tested on: T cell leukemia cell line (Jurkat cell)
- assay details: Cytotoxic activity, MTS assay in T cell line
- Assay type: cell-based
- conditions used: Homo sapiens, Jurkat cells, compound 2 μM, 72 h, relative to solvent control (DMSO)
value type: activity at 2 µM
Form field: result (number plus unit)

Cc1cc(CNCCNC(=O)NCCN2CCOCC2)c(OCc2cncc(C#N)c2)cc1OCc1cccc(-c2ccc3c(c2)OCCO3)c1C#N [Compound I-8] = 95.1%
C=C(NC(=O)NCCNCc1cc(C)c(OCc2cccc(-c3ccc4c(c3)OCCO4)c2C#N)cc1OCc1cncc(C#N)c1)C(=O)O [Compound I-6] = 92.1%

Here is another compound to look at.
Ask: Consider the compound shown here: Cc1cc(CNCCNC(=O)N[C@@H](CO)C(=O)O)c(OCc2cncc(C#N)c2)cc1OCc1cccc(-c2ccc3c(c2)OCCO3)c1C#N [Compound I-13] What is its recorded activity at 2 µM?
Result: 91.1%

====

Catalogue of activity at 2 µM values
- Test system: T cell leukemia cell line (Jurkat cell)
- assay details: Cytotoxic activity, MTS assay in T cell line
- Type: cell-based
- conditions used: Homo sapiens, Jurkat cells, compound 2 μM, 72 h, relative to solvent control (DMSO)
State the answer as a number, implicitly in %.

Cc1cc(CNCCNC(=O)NCCN(C)C)c(OCc2cncc(C#N)c2)cc1OCc1cccc(-c2ccc3c(c2)OCCO3)c1C#N [Compound I-11] = 95.6
Cc1cc(CNCCOCCNC(=O)NCCS(C)(=O)=O)c(OCc2cncc(C#N)c2)cc1OCc1cccc(-c2ccc3c(c2)OCCO3)c1C#N [Compound I-9] = 99.6
Cc1cc(CNCCOCCNC(=O)NCCN(C)C)c(OCc2cncc(C#N)c2)cc1OCc1cccc(-c2ccc3c(c2)OCCO3)c1C#N [Compound I-10] = 97.1

Ask: Consider the compound shown here: C=CC(=O)NCCNC(=O)NCCNCc1cc(C)c(OCc2cccc(-c3ccc4c(c3)OCCO4)c2C#N)cc1OCc1cncc(C#N)c1 [Compound I-14] What is its recorded activity at 2 µM?
Result: 102

Ask: Try Cc1cc(CNCCNC(=O)NC(CO)(CO)CO)c(OCc2cncc(C#N)c2)cc1OCc1cccc(-c2ccc3c(c2)OCCO3)c1C#N [Compound I-5] next.
Result: 94.6
